# target.or.test.system: NCAM on rat hippocampal neurons (rat, UniProt P13596 20-858)
# Sequence (P13596 20-858): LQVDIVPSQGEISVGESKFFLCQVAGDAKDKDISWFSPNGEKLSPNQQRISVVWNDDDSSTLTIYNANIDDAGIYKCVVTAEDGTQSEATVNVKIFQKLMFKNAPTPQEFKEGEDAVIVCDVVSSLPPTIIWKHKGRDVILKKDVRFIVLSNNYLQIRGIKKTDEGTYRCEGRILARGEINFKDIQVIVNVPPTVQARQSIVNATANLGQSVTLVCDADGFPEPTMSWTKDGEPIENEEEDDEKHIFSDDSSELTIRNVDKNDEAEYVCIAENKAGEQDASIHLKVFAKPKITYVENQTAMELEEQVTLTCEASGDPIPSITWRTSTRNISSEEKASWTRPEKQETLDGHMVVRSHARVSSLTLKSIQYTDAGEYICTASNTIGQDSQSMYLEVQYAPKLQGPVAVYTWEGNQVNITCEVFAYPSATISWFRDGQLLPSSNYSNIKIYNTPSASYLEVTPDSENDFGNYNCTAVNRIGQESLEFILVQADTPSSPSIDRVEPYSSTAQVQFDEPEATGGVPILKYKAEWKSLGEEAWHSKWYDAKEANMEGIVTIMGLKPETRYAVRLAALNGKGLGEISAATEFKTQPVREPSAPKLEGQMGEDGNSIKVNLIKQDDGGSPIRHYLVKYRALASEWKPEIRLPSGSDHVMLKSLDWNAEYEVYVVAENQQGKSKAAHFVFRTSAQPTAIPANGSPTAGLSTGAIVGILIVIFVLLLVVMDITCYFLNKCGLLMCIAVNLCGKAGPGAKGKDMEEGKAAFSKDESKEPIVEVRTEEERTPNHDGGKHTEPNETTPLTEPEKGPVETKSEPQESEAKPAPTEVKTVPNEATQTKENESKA
# test.details: cell-based or functional assay
Ends that are not written are not given here.
Neuritogenic effect, 3 µM NPY fragment (% of control) values for the binders below.

Below are worked cases with known answers.
1. ASALRHYINLITRQR [NPY21-35 ala21]	94.1 % of control
2. YSALRHYINLITRQRY-NH2 [NPY21-36]	186 % of control

Identify the reported Neuritogenic effect, 3 µM NPY fragment (% of control) for the following entry. YINLITRQRY-NH2 [NPY27-36]
99.1 % of control

Quick one: give measured Neuritogenic effect, 3 µM NPY fragment (% of control) for ALRHYINLITRQR [NPY23-35]
104 % of control

Origin of measurements: patent US20160060320A1
